The origin of these recorded values is paper PMC4585259.

biological target: rNav1.2 sodium channels (Rattus norvegicus, UniProt P04775); construct: host or cells: HEK-293; assay: QPatch automated patch clamp, inhibition of sodium currents evoked by 5 Hz trains at three extracellular pH values; assay type: cell-based; conditions: pH 6.0/8.6; cc 30 mM
Sequence (P04775 whole entry): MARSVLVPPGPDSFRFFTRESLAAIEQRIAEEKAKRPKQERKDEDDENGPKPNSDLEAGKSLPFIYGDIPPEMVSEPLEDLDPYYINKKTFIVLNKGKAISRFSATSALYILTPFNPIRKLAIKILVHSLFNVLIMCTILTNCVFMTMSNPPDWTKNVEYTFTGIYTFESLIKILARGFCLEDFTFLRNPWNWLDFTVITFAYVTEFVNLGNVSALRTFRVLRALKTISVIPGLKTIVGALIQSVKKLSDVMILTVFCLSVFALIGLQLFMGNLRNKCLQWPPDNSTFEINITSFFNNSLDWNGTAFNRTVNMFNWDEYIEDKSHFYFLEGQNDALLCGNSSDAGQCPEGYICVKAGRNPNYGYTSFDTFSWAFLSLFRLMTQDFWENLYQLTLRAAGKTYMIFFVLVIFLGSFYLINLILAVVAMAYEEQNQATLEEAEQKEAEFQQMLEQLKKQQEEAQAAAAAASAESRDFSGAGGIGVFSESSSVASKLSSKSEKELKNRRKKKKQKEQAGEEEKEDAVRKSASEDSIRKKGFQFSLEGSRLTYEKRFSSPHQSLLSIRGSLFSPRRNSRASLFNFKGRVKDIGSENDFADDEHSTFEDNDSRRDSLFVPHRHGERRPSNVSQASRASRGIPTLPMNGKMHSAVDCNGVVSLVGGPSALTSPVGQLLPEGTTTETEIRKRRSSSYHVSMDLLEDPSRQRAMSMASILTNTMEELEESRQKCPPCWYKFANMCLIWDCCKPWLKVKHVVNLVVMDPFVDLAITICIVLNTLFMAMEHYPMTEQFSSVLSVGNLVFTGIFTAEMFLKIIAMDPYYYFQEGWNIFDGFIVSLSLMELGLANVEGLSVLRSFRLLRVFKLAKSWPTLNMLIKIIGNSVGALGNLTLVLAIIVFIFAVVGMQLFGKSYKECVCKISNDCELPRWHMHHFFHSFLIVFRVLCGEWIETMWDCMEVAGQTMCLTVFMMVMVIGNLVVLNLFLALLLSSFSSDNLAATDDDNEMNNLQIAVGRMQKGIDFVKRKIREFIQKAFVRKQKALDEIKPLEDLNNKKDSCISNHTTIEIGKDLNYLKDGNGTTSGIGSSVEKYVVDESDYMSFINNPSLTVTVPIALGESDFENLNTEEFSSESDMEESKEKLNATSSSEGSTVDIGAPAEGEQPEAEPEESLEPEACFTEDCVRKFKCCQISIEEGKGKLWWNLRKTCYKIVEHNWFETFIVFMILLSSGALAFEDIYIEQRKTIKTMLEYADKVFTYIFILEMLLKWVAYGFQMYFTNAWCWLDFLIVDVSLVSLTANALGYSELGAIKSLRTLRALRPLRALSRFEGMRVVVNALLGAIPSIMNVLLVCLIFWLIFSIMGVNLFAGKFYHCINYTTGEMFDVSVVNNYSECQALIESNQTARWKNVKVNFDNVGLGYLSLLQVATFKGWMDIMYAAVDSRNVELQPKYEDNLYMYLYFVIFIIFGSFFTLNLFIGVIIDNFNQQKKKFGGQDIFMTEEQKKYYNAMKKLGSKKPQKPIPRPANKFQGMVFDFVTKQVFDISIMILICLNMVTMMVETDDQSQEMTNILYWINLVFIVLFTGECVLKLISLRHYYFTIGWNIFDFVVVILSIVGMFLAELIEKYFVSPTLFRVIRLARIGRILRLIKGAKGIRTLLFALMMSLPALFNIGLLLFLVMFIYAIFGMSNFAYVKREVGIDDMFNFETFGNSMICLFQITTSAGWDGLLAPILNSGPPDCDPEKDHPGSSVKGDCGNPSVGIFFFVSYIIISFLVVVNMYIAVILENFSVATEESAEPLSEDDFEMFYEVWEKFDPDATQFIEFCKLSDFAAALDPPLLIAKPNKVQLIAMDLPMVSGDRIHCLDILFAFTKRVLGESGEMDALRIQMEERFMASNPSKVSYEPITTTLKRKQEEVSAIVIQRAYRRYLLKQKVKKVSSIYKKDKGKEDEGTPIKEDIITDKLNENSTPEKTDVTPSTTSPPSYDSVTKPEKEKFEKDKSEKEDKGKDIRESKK
Classification field: enter 1.0 for log Ratio App Aff values not below 0.1, 0.0 for values below it.

Below are worked cases with known answers.
INSERT INTO measurements (compound, system, answer_label) VALUES
  ('Fc1ccc([C@@H]2CCNC[C@H]2COc2ccc3c(c2)OCO3)cc1', 'rNav1.2 sodium channels (Rattus norvegicus, UniProt P04775)', 1.0),
  ('CN(C)CCCN1c2ccccc2Sc2ccc(Cl)cc21', 'rNav1.2 sodium channels (Rattus norvegicus, UniProt P04775)', 1.0),
  ('CC12CC3CC(C)(C1)CC(N)(C3)C2 [memantine]', 'rNav1.2 sodium channels (Rattus norvegicus, UniProt P04775)', 1.0),
  ('CN(C)CCC=C1c2ccccc2CCc2ccccc21', 'rNav1.2 sodium channels (Rattus norvegicus, UniProt P04775)', 1.0),
  ('CCc1nn(CCCN2CCN(c3cccc(Cl)c3)CC2)c(=O)n1CCOc1ccccc1', 'rNav1.2 sodium channels (Rattus norvegicus, UniProt P04775)', 1.0);

Form field: log Ratio App Aff at least 0.1? Entry: Cc1nc2sccn2c(=O)c1CCN1CCC(=C(c2ccc(F)cc2)c2ccc(F)cc2)CC1
0.0

---

molecular target: rNav1.2 sodium channels (Rattus norvegicus); construct: host or cells: HEK-293; experiment: QPatch automated patch clamp, inhibition of sodium currents evoked by 5 Hz trains at three extracellular pH values; format: cell-based; conditions: pH=7.3; cc 1000 mM; read-out: Apparent Affinity
endpoint: pKd
pKd is defined as minus the log10 of a concentration measured in mol/L.

Look up pKd: CCN(CC)CC(=O)Nc1c(C)cccc1C
2.99

---

molecular target: rNav1.2 sodium channels (Rattus norvegicus, UniProt P04775); construct: host or cells: HEK-293; assay: QPatch automated patch clamp, inhibition of sodium currents evoked by 5 Hz trains at three extracellular pH values; format: cell-based; conditions: pH 6.0/7.3; cc 100 mM
Classification field: enter 1 for Ratio Tau Onset values not below 0.9, 0 for values below it.

Below are worked cases with known answers.
INSERT INTO results (molecule, answer_label) VALUES
  ('CCCCN1CCCCC1C(=O)Nc1c(C)cccc1C (stereo not drawn)', 1),
  ('Cc1ccc(C(=O)C(C)CN2CCCCC2)cc1 (stereo not drawn)', 1),
  ('CN1CCN2c3ncccc3Cc3ccccc3C2C1 (stereo not drawn)', 1),
  ('CNCCC(Oc1ccccc1OC)c1ccccc1 (stereo not drawn)', 0);

Form field: Ratio Tau Onset at least 0.9? Entry: COc1ccccc1OCC(O)CN1CCN(CC(=O)Nc2c(C)cccc2C)CC1 (stereo not drawn)
0

And what about the molecule CC12CC3CC(C)(C1)CC(N)(C3)C2 [memantine] ?
1

And what about the molecule COc1ccc(C(CN(C)C)C2(O)CCCCC2)cc1 (stereo not drawn) ?
1

---

Quick reference for log Ratio App Aff among some compounds
biological target: rNav1.2 sodium channels (Rattus norvegicus, UniProt P04775); construct: host or cells: HEK-293; assay: QPatch automated patch clamp, inhibition of sodium currents evoked by 5 Hz trains at three extracellular pH values; format: cell-based; conditions: pH 7.3/8.6; cc 100 mM
Reply: number alone, nothing else.

Reference set (5 entries):
INSERT INTO measurements (compound, experimental_value) VALUES
  ('Cc1ccc(C(=O)C(C)CN2CCCCC2)cc1 (stereo not drawn) [tolperisone]', 0.410),
  ('CNCCC(Oc1ccccc1OC)c1ccccc1 (stereo not drawn) [nisoxetine]', 0.448),
  ('CN1CCN2c3ncccc3Cc3ccccc3C2C1 (stereo not drawn) [mirtazapine]', 0.572),
  ('Nc1c(Br)cc(Br)cc1CN[C@H]1CC[C@H](O)CC1 [ambroxol]', 0.303),
  ('CC12CC3CC(C)(C1)CC(N)(C3)C2 [memantine]', 0.731);

Param readout = log Ratio App Aff; param system = rNav1.2 sodium channels (Rattus norvegicus, UniProt P04775); param query = COc1ccccc1OCC(O)CN1CCN(CC(=O)Nc2c(C)cccc2C)CC1 (stereo not drawn) [ranolazine] ; response: value
-0.034

---

molecular target: rNav1.2 sodium channels (Rattus norvegicus, UniProt P04775); construct: host or cells: HEK-293; experiment: QPatch automated patch clamp, inhibition of sodium currents evoked by 5 Hz trains at three extracellular pH values; assay type: cell-based; settings: pH 6.0; single concentration (lidocaine 300 μM, memantine 30 μM); geometric mean of 5; read-out: apparent affinity
endpoint: pKd
pKd is defined as minus the log10 of a concentration measured in mol/L.

INSERT INTO results (molecule, experimental_value) VALUES
  ('CCCCN1CCCCC1C(=O)Nc1c(C)cccc1C (stereo not drawn)', 3.97),
  ('Fc1ccc([C@@H]2CCNC[C@H]2COc2ccc3c(c2)OCO3)cc1', 4.30);

Continue with the next molecule.
Look up pKd: CC12CC3CC(C)(C1)CC(N)(C3)C2 [memantine]
3.40

---

Quick reference for pKd among some compounds
molecular target: rNav1.2 sodium channels (Rattus norvegicus); construct: host or cells: HEK-293; assay: QPatch automated patch clamp, inhibition of sodium currents evoked by 5 Hz trains at three extracellular pH values; format: cell-based; details: pH=6.0; cc 30 mM; read-out: Apparent Affinity
pKd is defined as minus the log10 of a concentration measured in mol/L.

Look up pKd: CC12CC3CC(C)(C1)CC(N)(C3)C2 [memantine]
3.40

And what about the compound CCc1nn(CCCN2CCN(c3cccc(Cl)c3)CC2)c(=O)n1CCOc1ccccc1 ?
4.42

And what about the compound CN(C)CCCN1c2ccccc2Sc2ccc(Cl)cc21 ?
4.43

---

target: rNav1.2 sodium channels (Rattus norvegicus); construct: host or cells: HEK-293; assay: QPatch automated patch clamp, inhibition of sodium currents evoked by 5 Hz trains at three extracellular pH values; type: cell-based; conditions: pH 7.3/8.6; cc 30 mM
endpoint: Ratio Tau Onset
Reply: number alone, nothing else.

INSERT INTO results (molecule, experimental_value) VALUES
  ('CN(C)CCC=C1c2ccccc2CCc2ccccc21', 1.027),
  ('CCc1nn(CCCN2CCN(c3cccc(Cl)c3)CC2)c(=O)n1CCOc1ccccc1', 0.986),
  ('CC12CC3CC(C)(C1)CC(N)(C3)C2 [memantine]', 0.785),
  ('CN(C)CCCN1c2ccccc2Sc2ccc(Cl)cc21', 0.755);

Look up Ratio Tau Onset: Cc1nc2sccn2c(=O)c1CCN1CCC(=C(c2ccc(F)cc2)c2ccc(F)cc2)CC1
0.600

And what about the molecule Fc1ccc([C@@H]2CCNC[C@H]2COc2ccc3c(c2)OCO3)cc1 ?
1.418

---

Quick reference for Kd among some compounds
Target: rNav1.2 sodium channels (Rattus norvegicus, UniProt P04775)
Construct: host or cells: HEK-293
Assay: QPatch automated patch clamp, inhibition of sodium currents evoked by 5 Hz trains at three extracellular pH values
Type: cell-based
Settings: apparent affinity, pH 6.0; single concentration (lidocaine 300 μM, memantine 30 μM); geometric mean of 5
Protocol: HEK-293 cells stably expressing rNav1.2 sodium channels were obtained from NeuroSearch (Ballerup, Denmark). The cells were grown in Dulbecco's modified Eagle medium supplemented with 10% FBS. Prior to use, the cells were trypsinized and subsequently kept in suspension in the QPatch cell storage facility in CHO-S- SFM-II medium. […] Data were sampled at a frequency of 25 kHz and filtered at 5 kHz. Junction potential was calculated to be −11 mV and was corrected for. […]
Provide the reading as a plain figure in µM.

INSERT INTO results (compound, experimental_value) VALUES
  ('CNCCC(Oc1ccccc1OC)c1ccccc1 (centres unmarked)', 210);

Continue with the next compound.
Look up Kd: COc1ccc(C(CN(C)C)C2(O)CCCCC2)cc1 (centres unmarked)
810

---

target: rNav1.2 sodium channels (Rattus norvegicus, UniProt P04775); construct: host or cells: HEK-293; test: QPatch automated patch clamp, inhibition of sodium currents evoked by 5 Hz trains at three extracellular pH values; type: cell-based; conditions: pH 6.0/7.3; cc 30 mM
endpoint: Ratio Tau Offset
Reply: number alone, nothing else.

Reference set (3 entries):
INSERT INTO measurements (compound, experimental_value) VALUES
  ('CCc1nn(CCCN2CCN(c3cccc(Cl)c3)CC2)c(=O)n1CCOc1ccccc1', 0.978),
  ('CN(C)CCC=C1c2ccccc2CCc2ccccc21', 1.193),
  ('Cc1nc2sccn2c(=O)c1CCN1CCC(=C(c2ccc(F)cc2)c2ccc(F)cc2)CC1', 0.863);

Look up Ratio Tau Offset: Fc1ccc([C@@H]2CCNC[C@H]2COc2ccc3c(c2)OCO3)cc1
0.896

And what about the compound CC12CC3CC(C)(C1)CC(N)(C3)C2 [memantine] ?
1.093

And what about the compound CN(C)CCCN1c2ccccc2Sc2ccc(Cl)cc21 ?
0.831
